# System: Mycolicibacterium smegmatis
# PROCEDURE TEXT: Antimicrobial activity against Mycobacterium smegmatis by broth microdilution assay
# Assay type: functional
For each entry below, report its log10(MIC) value.
Log10 applied to MIC; unit prior to transform: µM.

Here are 3 compounds together with their reported answers.
[C-]#[N+][C@]12C=CC(C)(C)c3[nH]c4cccc5c4c3[C@]1(O)[C@H](C[C@@H](Cl)[C@]2(C)C=C)C5(C)C; 1.37
[C-]#[N+][C@]12C[C@@H](O)C(C)(C)c3[nH]c4cccc5c4c3[C@]1(O)[C@H](C[C@@H](Cl)[C@]2(C)C=C)C5(C)C; 1.41
[C-]#[N+][C@@H]1[C@H]2c3c[nH]c4cccc(c34)C(C)(C)[C@@H]2CC[C@]1(C)C=C; 1.60

Batch of 2 compounds: report log10(MIC) for each.
1. [C-]#[N+][C@@H]1[C@@H]2c3c[nH]c4cccc(c34)C(C)(C)[C@H]2C[C@@H](Cl)[C@]1(C)C=C
2. COc1c(N2C[C@@H]3CCCN[C@@H]3C2)c(F)cc2c(=O)c(C(=O)O)cn(C3CC3)c12

output:
1: 1.53; 2: -0.15

input: What does the record list as log10(MIC) for [C-]#[N+][C@]12C=CC(C)(C)c3[nH]c4cccc5c4c3[C@]1(O)[C@H](CC[C@]2(C)C=C)C5(C)C ?
output: 1.47

----------
For each entry below, report its MIC value.
# System: Candida albicans
# PROCEDURE TEXT: Antimicrobial activity against Candida albicans by broth microdilution assay
# Format: functional

[C-]#[N+][C@]12C=CC(C)(C)c3[nH]c4cccc5c4c3[C@]1(O)[C@H](C[C@@H](Cl)[C@]2(C)C=C)C5(C)C [AMBIGUINE K ISONITRILE]; < 0.9 µM
[C-]#[N+][C@@H]1[C@@H]2c3c(C(C)(C)C=C)[nH]c4cccc(c34)C(C)(C)[C@H]2C[C@@H](Cl)[C@]1(C)C=C [AMBIGUINE A ISONITRILE]; < 1 µM
CC(=O)N1CCN(c2ccc(OCC3COC(Cn4ccnc4)(c4ccc(Cl)cc4Cl)O3)cc2)CC1 (stereo unspecified) [KETOCONAZOLE]; 0.03 µM
[C-]#[N+][C@]12C[C@@H](O)C(C)(C)c3[nH]c4cccc5c4c3[C@]1(O)[C@H](CC[C@]2(C)C=C)C5(C)C [AMBIGUINE N ISONITRILE]; < 1 µM
[C-]#[N+][C@@H]1[C@H]2c3c[nH]c4cccc(c34)C(C)(C)[C@@H]2CC[C@]1(C)C=C [HAPALINDOLE H]; 5.1 µM
[C-]#[N+][C@@H]1[C@@H]2c3c[nH]c4cccc(c34)C(C)(C)[C@H]2C[C@@H](Cl)[C@]1(C)C=C [HAPALINDOLE G]; > 128 µM
[C-]#[N+][C@@H]1[C@]2(O)c3c(C(C)(C)C=C)[nH]c4cccc(c34)C(C)(C)[C@H]2CC[C@]1(C)C=C [AMBIGUINE C ISONITRILE]; < 1 µM
[C-]#[N+][C@H]1[C@@](C)(C=C)[C@H](Cl)C[C@@H]2C(C)(C)c3cccc4[nH]c(C(C)(C)C=C)c(c34)[C@]21O [AMBIGUINE B ISONITRILE]; 1.7 µM

Batch of 3 compounds: report MIC for each.
1. [C-]#[N+][C@]12[C@H]3O[C@H]3C(C)(C)c3[nH]c4cccc5c4c3[C@]1(O)[C@H](C[C@@H](Cl)[C@]2(C)C=C)C5(C)C [AMBIGUINE E ISONITRILE]
2. [C-]#[N+][C@]12C[C@@H](O)C(C)(C)c3[nH]c4cccc5c4c3[C@]1(O)[C@H](C[C@@H](Cl)[C@]2(C)C=C)C5(C)C [AMBIGUINE M ISONITRILE]
3. [C-]#[N+][C@]12C=CC(C)(C)c3[nH]c4cccc5c4c3[C@]1(O)[C@H](CC[C@]2(C)C=C)C5(C)C [AMBIGUINE L ISONITRILE]

output:
1: < 0.9 µM; 2: 1.1 µM; 3: < 1 µM

----------
# Tested on: Staphylococcus aureus
# PROCEDURE TEXT: Antimicrobial activity against Staphylococcus aureus by broth microdilution assay
# Assay type: functional
MEASUREMENT LABEL: MIC

Here are 5 compounds together with their reported answers.
[C-]#[N+][C@@H]1[C@@H]2c3c[nH]c4cccc(c34)C(C)(C)[C@H]2C[C@@H](Cl)[C@]1(C)C=C; > 128 µM
[C-]#[N+][C@]12C=CC(C)(C)c3[nH]c4cccc5c4c3[C@]1(O)[C@H](C[C@@H](Cl)[C@]2(C)C=C)C5(C)C; 4.6 µM
[C-]#[N+][C@]12[C@H]3O[C@H]3C(C)(C)c3[nH]c4cccc5c4c3[C@]1(O)[C@H](C[C@@H](Cl)[C@]2(C)C=C)C5(C)C; 1.5 µM
[C-]#[N+][C@H]1[C@@](C)(C=C)[C@H](Cl)C[C@@H]2C(C)(C)c3cccc4[nH]c(C(C)(C)C=C)c(c34)[C@]21O; 10.9 µM
[C-]#[N+][C@]12C=CC(C)(C)c3[nH]c4cccc5c4c3[C@]1(O)[C@H](CC[C@]2(C)C=C)C5(C)C; 10.5 µM

Batch of 5 compounds: report MIC for each.
1. [C-]#[N+][C@]12C[C@@H](O)C(C)(C)c3[nH]c4cccc5c4c3[C@]1(O)[C@H](CC[C@]2(C)C=C)C5(C)C
2. [C-]#[N+][C@@H]1[C@]2(O)c3c(C(C)(C)C=C)[nH]c4cccc(c34)C(C)(C)[C@H]2CC[C@]1(C)C=C
3. [C-]#[N+][C@@H]1[C@@H]2c3c(C(C)(C)C=C)[nH]c4cccc(c34)C(C)(C)[C@H]2C[C@@H](Cl)[C@]1(C)C=C
4. [C-]#[N+][C@]12C[C@@H](O)C(C)(C)c3[nH]c4cccc5c4c3[C@]1(O)[C@H](C[C@@H](Cl)[C@]2(C)C=C)C5(C)C
5. [C-]#[N+][C@@H]1[C@H]2c3c[nH]c4cccc(c34)C(C)(C)[C@@H]2CC[C@]1(C)C=C

output:
5.5 µM
7.4 µM
1.8 µM
4.7 µM
> 128 µM
